Reference source for all entries: ChEMBL document CHEMBL4346683

Assay: Cytotoxicity against human 293T cells assessed as reduction in cell viability incubated for 24 hrs by MTT assay
Type: cell-based
Details: HEK-293T cells
Please assign Not met whenever CC50 at 24 h is at or above 200 µM, and Met whenever it is below.

For orientation, consider the following solved cases.
Task: Consider the molecule `Cc1ccc(C(=O)n2c(-c3cn(-c4ccccc4)nc3-c3ccc(C(F)(F)F)cc3)nc3ccccc32)cc1` . Is its CC50 at 24 h strictly less than 200 µM?
Result: Met

Task: And `Cc1ccc(-c2nn(-c3ccccc3)cc2-c2nc3ccccc3n2C(=O)c2ccncc2)cc1` ?
Result: Met

---
Task: Consider the molecule `Cc1ccc(-c2nn(-c3ccccc3)cc2-c2nc3ccccc3n2C(=O)c2ccc(Cl)cc2)cc1` . Is its CC50 at 24 h strictly less than 200 µM?
Result: Not met

Task: And `O=C(c1cccnc1)n1c(-c2cn(-c3ccccc3)nc2-c2ccc(F)cc2)nc2ccccc21` ?
Result: Not met

Task: And `Cc1ccccc1C(=O)n1c(-c2cn(-c3ccccc3)nc2-c2ccc(C(F)(F)F)cc2)nc2ccccc21` ?
Result: Met

Task: And `O=C(c1ccncc1)n1c(-c2cn(-c3ccccc3)nc2-c2ccc(C(F)(F)F)cc2)nc2ccccc21` ?
Result: Met

Task: And `Cc1ccc(C(=O)n2c(-c3cn(-c4ccccc4)nc3-c3ccc(F)cc3)nc3ccccc32)cn1` ?
Result: Met

Task: And `Cc1ccccc1C(=O)n1c(-c2cn(-c3ccccc3)nc2-c2ccc(F)cc2)nc2ccccc21` ?
Result: Met

Task: And `Cc1ccc(-c2nn(-c3ccccc3)cc2-c2nc3ccccc3n2C(=O)c2ccccc2C)cc1` ?
Result: Met

====

Give measured log10 IC50 for each item. Keep answers brief.
Target: 3-oxoacyl-[acyl-carrier-protein] synthase 3 (Escherichia coli, UniProt C3TDZ2)
Sequence (C3TDZ2 whole entry): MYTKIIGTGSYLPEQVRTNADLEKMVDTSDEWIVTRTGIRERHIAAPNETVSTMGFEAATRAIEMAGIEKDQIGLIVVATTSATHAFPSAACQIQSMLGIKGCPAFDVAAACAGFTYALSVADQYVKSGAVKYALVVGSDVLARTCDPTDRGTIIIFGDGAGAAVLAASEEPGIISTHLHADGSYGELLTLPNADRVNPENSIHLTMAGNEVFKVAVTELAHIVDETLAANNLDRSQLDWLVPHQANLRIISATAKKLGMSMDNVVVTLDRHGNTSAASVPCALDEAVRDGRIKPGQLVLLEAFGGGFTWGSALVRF
Experiment: Inhibition of Escherichia coli FabH in presence of radiolabelled substrates and acetyl-coA by enzyme coupled FabD/FabH assay system
For clarity, the numbers are log10 values of IC50 expressed in µM.

Task: What does the data say about its log10 IC50? Entry: `Cc1cccc(C(=O)n2c(-c3cn(-c4ccccc4)nc3-c3ccc(C(F)(F)F)cc3)nc3ccccc32)c1`
Result: 1.54

For each of the molecules below, note its log10 IC50.
1. O=C(c1ccc(Cl)cc1)n1c(-c2cn(-c3ccccc3)nc2-c2ccc(F)cc2)nc2ccccc21
2. O=C(c1cccnc1)n1c(-c2cn(-c3ccccc3)nc2-c2ccc(C(F)(F)F)cc2)nc2ccccc21
3. Cc1ccc(C(=O)n2c(-c3cn(-c4ccccc4)nc3-c3ccc(C)cc3)nc3ccccc32)cc1

Result:
1.56
1.18
0.49

====

Target: UniProt C3TDZ2
Assay: Inhibition of Escherichia coli FabH in presence of radiolabelled substrates and acetyl-coA by enzyme coupled FabD/FabH assay system
MEASURE NAME: pIC50
Numbers only, as −log10 of the molar value.

# example entries with known answers
Task: What does the data say about its pIC50? Entry: `Cc1cncc(C(=O)n2c(-c3cn(-c4ccccc4)nc3-c3ccc(C(F)(F)F)cc3)nc3ccccc32)c1`
Result: 4.64

Task: And `Cc1ccc(C(=O)n2c(-c3cn(-c4ccccc4)nc3-c3ccc(F)cc3)nc3ccccc32)cn1` ?
Result: 5.40

Task: And `O=C(c1ccncc1)n1c(-c2cn(-c3ccccc3)nc2-c2ccc(C(F)(F)F)cc2)nc2ccccc21` ?
Result: 4.49

For each of the compounds below, note its pIC50.
1. Cc1cncc(C(=O)n2c(-c3cn(-c4ccccc4)nc3-c3ccc(F)cc3)nc3ccccc32)c1
2. Cc1ccc(-c2nn(-c3ccccc3)cc2-c2nc3ccccc3n2C(=O)c2cncc(C)c2)cc1

Result:
4.66
5.02

For each of the compounds below, note its pIC50.
1. O=C(c1cccnc1)n1c(-c2cn(-c3ccccc3)nc2-c2ccc(F)cc2)nc2ccccc21
2. Cc1ccc(-c2nn(-c3ccccc3)cc2-c2nc3ccccc3n2C(=O)c2cccc(C)c2)cc1

Result:
1: 5.91; 2: 4.48
